B1: Azoarcus group I ribozyme (parent)
chain: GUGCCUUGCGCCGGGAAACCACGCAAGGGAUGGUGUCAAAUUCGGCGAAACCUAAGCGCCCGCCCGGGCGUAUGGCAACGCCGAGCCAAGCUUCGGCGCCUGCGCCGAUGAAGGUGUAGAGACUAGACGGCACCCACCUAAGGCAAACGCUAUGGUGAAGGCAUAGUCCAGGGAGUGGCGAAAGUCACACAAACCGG

# Variants of: B1
# Test summary: reverse-splicing fitness (ratio to wild type); higher = more active; in vitro selection; Mg2+ level not given
Entries annotated with measured reverse-splicing fitness
Write the value as a bare number.

Example results:
Variant description	Quantity name	Result
A111G A120U A145G C150U C169U U176A	reverse-splicing fitness	0.0147
A111C C150U U176G	reverse-splicing fitness	0.138
C82U A111U A120G A145G C150U C169G	reverse-splicing fitness	0.00964
C82U A111U A120G A145G C150A C169A U176A	reverse-splicing fitness	0.0153

Name the reported reverse-splicing fitness value associated with the variant C82G A120G A145C
0.0276

Name the reported reverse-splicing fitness value associated with the variant A111G A120C A145U C150U C169U U176C
0.051

Name the reported reverse-splicing fitness value associated with the variant A111G A120U A145C C150U
0.264

Values from the RNAGym collection of RNA variant scans (doi:10.1093/molbev/msab373)
